# GI50 annotations
Test system: MOLT-4
Experiment: NCI tumour cell line growth inhibition, 48 h
Activity calls are given as the source filed them. No stated cut-off is given here; in the data, active = GI50 up to about 1.1 µM and inactive = higher.
measured_quantity: GI50

molecule: CC1C(=O)N(C)C2(CO)C(=O)O[C@H](C)C12O (stereo partly specified)
measured_quantity: GI50
assay_value: > 100 µM (inactive)
--
molecule: CCN(CC)CCCNc1n[n+]([O-])c2ccccc2[n+]1[O-]
measured_quantity: GI50
assay_value: 2.73 µM (inactive)
--
molecule: CN1CCN(C(=S)N(C(=O)c2cccs2)c2ccccc2)CC1
measured_quantity: GI50
assay_value: > 100 µM (inactive)
--
molecule: COC(=O)[C@H]1C=NN[C@@H]1C(=O)N1[C@H]2CC3CC[C@@]2(CS1(=O)=O)C3(C)C
measured_quantity: GI50
assay_value: > 100 µM (inactive)
--
molecule: COc1ccc(/C=C(\C#N)c2nc(N)nc(N3N=C(C)CC3(C)C)n2)c(O)c1
measured_quantity: GI50
assay_value: 13.1 µM (inactive)
--
molecule: CO/C(=N\N=C\c1cccc(Cl)c1)c1ccncc1
measured_quantity: GI50
assay_value: > 10 µM (inactive)
--
molecule: CCC(=O)/C=C/c1ccccc1
measured_quantity: GI50
assay_value: 26 µM (inactive)
--
molecule: COC(=O)c1ccc(C)cc1/C=C1\Cc2ccc(C)cc2C1=O
measured_quantity: GI50
assay_value: 13.2 µM (inactive)
--
molecule: C/C(=N\c1cc(Cl)cc(Cl)c1)c1ccncc1
measured_quantity: GI50
assay_value: > 100 µM (inactive)
--
molecule: Cc1nc(C(N)=S)sc1C(=O)C/C(=N/N)C(=O)Nc1cccc(Cl)c1C
measured_quantity: GI50
assay_value: > 100 µM (inactive)
--
molecule: CC(Cc1ccc(Cl)cc1Cl)NO (stereo unspecified)
measured_quantity: GI50
assay_value: 83.6 µM (inactive)

----------
System: A549
Experiment: NCI tumour cell line growth inhibition, 48 h
Active and inactive are the calls of the source. Cut-off read from the data, not from the text of the source: active = GI50 up to about 1.1 µM and inactive = higher.
# GI50 annotations

compound: CC(=O)c1ccc(NC(=O)C(=O)C(C#N)CC(C)(C)C=O)cc1 (stereo unspecified)
GI50: > 100 µM (inactive)
--
compound: C=C(COC(=O)C(C)C)[C@H]1Oc2ccc(C(C)=O)cc2[C@@H]1OC(=O)C(C)C
GI50: > 100 µM (inactive)
--
compound: CCC(COC(=O)CC[C@@H](NC(=O)C(C)NC(=O)C(C)OC1C(O)C(CO)OC(OCc2ccccc2)C1NC(C)=O)C(N)=O)NC1c2ccccc2Nc2cccc([N+](=O)[O-])c21 (stereo partly specified)
GI50: > 100 µM (inactive)
--
compound: COP(=O)(Cc1ccccc1)Cc1ccccc1
GI50: > 100 µM (inactive)
--
compound: Cc1ccc(CCCCCOc2ccc(C3=NCCO3)cc2)s1
GI50: > 100 µM (inactive)
--
compound: O=C1NC(=O)C2=C1CCC2O (stereo unspecified)
GI50: > 100 µM (inactive)
--
compound: O=c1oc2c3ccc4ccccc4c3n(CCN3CCCCC3)c2c2ccccc12
GI50: 15.6 µM (inactive)
--
compound: O=P1(Cc2ccccc2)N(Cc2ccccc2)[C@@H]2CCCC[C@H]2N1Cc1ccccc1
GI50: 6.17 µM (inactive)
--
compound: Oc1cc(-c2cccc(Br)c2)nc2cc3c(cc12)OCO3
GI50: 7.24 µM (inactive)
--
compound: COc1cc(OC)c(/C=N/N=C(\N)NO)c(OC)c1
GI50: 60.8 µM (inactive)
--
compound: O=C1CSC(Cc2nc3ccccc3[nH]2)=N1
GI50: 21.6 µM (inactive)
